- System: CCRIS mutagenicity, Ames/micronucleus/aberration tests
- measurement-notes: CCRIS mutagenicity studies
- experimental-conditions: Test System: AMES SALMONELLA TYPHIMURIUM; Strain/Indicator: TA100; Metabolic Activation: NONE; Method: STANDARD PLATE
The source made the active and inactive calls. How the calls were made is not given here.
Outcomes you can answer with include only these: YES (active), NO (inactive)

Worked examples follow.
Nc1c(C(=O)O)cc([N+](=O)[O-])c2c1C(=O)c1ccccc1C2=O ... YES
CC1(C)C(=O)[C@]2(C)CC[C@H]1C2 ... NO
CC(C)C[C@H]1C(=O)N2CCC[C@H]2[C@]2(O)O[C@](NC(=O)[C@@H]3C[C@@H]4c5cccc6[nH]cc(c56)C[C@H]4N(C)C3)(C(C)C)C(=O)N12 ... NO
O=C(Nc1ccc(Cl)cc1)c1csc([N+](=O)[O-])c1 ... YES

Please indicate how the test categorized C1CCCCCC2OC2CCCC1 (stereo not drawn) .
NO

Next up: `Cn1c2ccccc2c2cc([N+](=O)[O-])ccc21`
YES

Next up: `O=C1OCC(C(Br)Br)=C1Cl`
YES

Next up: `O=[N+]([O-])c1cc2c(cc1Cl)Oc1cc(Cl)c(Cl)cc1O2`
YES

Next up: CCCCN1C2c3ccccc3-c3ccccc3C21 (stereo not drawn)
YES

Next up: `COc1ccc([C@@H]2CC(=O)c3c(O)cc(O[C@@H]4O[C@H](CO[C@@H]5O[C@@H](C)[C@H](O)[C@@H](O)[C@H]5O)[C@@H](O)[C@H](O)[C@H]4O)cc3O2)cc1O`
NO

Next up: `Cc1cccc(C(=O)ON(OCc2ccccc2)C(=O)c2ccccc2)c1`
YES

Next up: `O=CN(O)c1ccc(Br)cc1`
NO

Next up: CCOP(=S)(OCC(C)C)SCCl (stereo not drawn)
NO

Next up: `ClC1=C(Cl)[C@]2(Cl)[C@H]3[C@H]([C@@H]4C=C[C@H]3C4)[C@@]1(Cl)C2(Cl)Cl`
NO

Next up: `BrCc1ccc2c(c1)-c1cccc3cccc-2c13`
YES
